// provenance: the supplement of paper PMC10567573

Quick list: protein stability index per entry.
B1: SEPHS2 (parent)
chain: KASGRFGLLQGTSAETSGGLLICL

Variants of: B1
experiment-summary: protein stability index of a GFP-peptide fusion (GPS, HEK-293T) (PSI 1-6); higher = more stable;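 further: lentivirally expressed fusions sorted by FACS into six bins by GFP to DsRed ratio, PSI derived from sequencing read proportions per bin multiplied by bin number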
condition-summary: c terminus: a fixed tail appended

- sequence-text: "KASGRFGLLQGTSAETSGQLLICL [G19Q]"
  protein stability index: 2.1

Lab note: KASGRFGLLQGTMAETSGGLLICL [S13M] gave protein stability index of 2.24

protein stability index reading for KASGRFGLLQGTSAETSGMLLICL [G19M] : 2.76

The recorded protein stability index for entry KASGRFGLNQGTSAETSGGLLICL [L9N] equals 1.78

Item: KAAGRFGLLQGTSAETSGGLLICL [S3A] | protein stability index: 1.55

Please fill in: protein stability index reported for KASGRFDLLQGTSAETSGGLLICL [G7D] = 3.42
